- System: SR leukemia
- Protocol: NCI-60 one-dose screen, 48 h (100 = growth as untreated, 0 = no growth, -100 = all killed)
- Assay setup: 10 µM unless noted
About 83,000 compounds went through this panel and 20% of them were active in at least one assay; those are over-represented in the sample as a whole.
Classify by growth. Ranges: class 0 = under 50%, class 1 = from 50% up to 90%, class 2 = 90% and over

Ask: Class for CN1C[C@@H](c2ccc(Cl)cc2)[C@]2(NC(=S)N(c3ccccc3)C2=O)[C@@]12C(=O)NC1C=CC(Br)=C[C@H]12 (stereo not given in full) ?
Result: class 0

Ask: Class for COc1ccc(-c2cncnc2N)cc1OC ?
Result: class 2

Ask: Class for Clc1ccc(-c2cn(-c3ccccc3)c(-c3ccccc3)n2)cc1 ?
Result: class 0

Ask: Class for O=C(O)C1C[C@](O)(c2ccc(F)cc2)[C@@H](c2ccc(F)cc2)O1 (stereo not given in full) ?
Result: class 1

Ask: Class for N#C/C(=C\c1ccc(Br)cc1)n1nnc2ccccc21 ?
Result: class 0

Ask: Class for CC(=O)Nc1ccc(-c2cc3c(NCc4ccc(F)cc4)ncnc3s2)cc1 ?
Result: class 1

Ask: Class for Clc1ccc(/C=N\N=c2\scc(-c3ccc(Cl)cc3)n2/N=C/c2ccc(Cl)cc2)cc1 ?
Result: class 2

Ask: Class for Cl.[Pt].[c-]1ccccc1-c1ccccn1.c1ccc(P(c2ccccc2)C([PH+](c2ccccc2)c2ccccc2)[PH+](c2ccccc2)c2ccccc2)cc1 ?
Result: class 0
